- Test system: guinea-pig trachea
- measurement.notes: Bronchodilating effect in vitro, Method 1-1: relaxation of LTD4-contracted guinea-pig trachea strips
- Type: cell-based
- particulars: Cavia porcellus, read-out: EC50 (concentration to achieve 50% relaxation relative to relaxation by 1 mM aminophylline)
pEC50: −log10 of the molar value.
quantity.measured: pEC50

- mol: "COc1ccc(CNc2cn[nH]c(=O)c2Cl)cc1OCC(=O)N1CCN(Cc2ccccc2)CC1"
  result: 6.49

###

- Test system: guinea-pig trachea
- measurement.notes: Bronchodilating effect in vitro, Method 1-1: relaxation of LTD4-contracted guinea-pig trachea strips
- Type: cell-based
- particulars: Method 1-1; LTD4 (30 nM) contracted trachea, indomethacin 5 μM; read-out: EC50 (concentration to achieve 50% relaxation relative to relaxation by 1 mM aminophylline)
pEC50: −log10 of the molar value.
quantity.measured: pEC50

- mol: "COc1ccc(CNc2cn[nH]c(=O)c2Cl)cc1OCCCN1CCN(Cc2ccccc2)CC1"
  result: 5.62

Reference source for all entries: patent US5929074A
